I'd appreciate it if you could supply melting point values for the items below.

# count of solved cases: 2
compound	parameter_measured	obs_value
Cc1noc(NS(=O)(=O)c2ccccc2-c2ccc(-c3ncco3)cc2CN(C)C(=O)C(C)(C)c2ccccc2)c1C	melting point	130 to 138 °C
CC(=O)Nc1ccc(OC2SCC(O)C(O)C2O)cn1 (configuration not stated)	melting point	209 °C

Report melting point for each item below.
1. Cc1cc(C)n(-c2nc(Nc3ccccc3)c3ccccc3n2)n1
2. COc1c(C)cnc(CO)c1C
3. CCNC(C)c1cc(S(N)(=O)=O)sc1S(C)(=O)=O (configuration not stated)

Found:
["262 to 265 °C", "49 to 51 °C", "164 to 166 °C"]

Report melting point for each item below.
1. CSc1sc(C(=O)N2CCCCCC2)c2c1C(=O)CC(C)(C)C2
2. CNC1CC=C(c2c[nH]c3ccc([N+](=O)[O-])cc23)CC1 (configuration not stated)
3. Nc1cn(-c2cncc(F)c2)nc1Cl
4. CCN1C(C(=O)OC)=C(O)c2ccc3ccccc3c2S1(=O)=O
5. c1cnn2cnnc2c1
6. CCCCCCN1C(=O)C(=CC(=O)O)SC1=Nc1cccc2ccccc12
7. C=CC(=O)NC(=O)NCCCl

Found:
1. 168 to 170 °C
2. 208 to 210 °C
3. 149 to 151 °C
4. 179 °C
5. 140 to 141 °C
6. 144 to 145 °C
7. 156 to 158 °C

Report melting point for each item below.
1. CCC[C@H]1CC[C@H](c2ccc(-c3ccccc3)c(F)c2)CC1
2. O=C(Nc1ccccn1)c1ccc(OC(F)F)c2oc3ccc(C(F)(F)F)cc3c12
3. CC1=CC(OC(=O)c2cccn2C)C(O)C(C)(C)CC1=O (configuration not stated)
4. CC1CN(c2nc3ccccc3s2)N=C1N (configuration not stated)
5. CCN(CC)C(=O)C(=NNc1ccccc1)C(C)=O
6. CC(=O)NC(=O)N1CC1C#N (configuration not stated)
7. CCc1cccc(CC)c1NC(=O)Nc1sc2cc(OC)c(OC)cc2c1-c1ccccc1Cl
8. CC(C)(C)c1cc(CCc2cc(CO)cc(CCc3cc(C(C)(C)C)cc(C(C)(C)C)c3)c2)cc(C(C)(C)C)c1

Found:
96.5 to 97.3 °C
169 to 170 °C
141 to 142 °C
207 to 209 °C
63 to 65 °C
139 to 142 °C
229 to 231 °C
101 °C

Report melting point for each item below.
1. OC(CNCCCCCCOCCCCc1ccccc1)c1cc(OCc2ccccc2)cc(OCc2ccccc2)c1 (configuration not stated)
2. COc1cc(Nc2c(C#N)cnc3cc(-c4cccc(CCN5CCOCC5)c4)c(OC)cc23)c(Cl)cc1Cl

Found:
65 to 67 °C
193 to 195 °C

---

I'd appreciate it if you could supply melting point values for the items below.

# count of solved cases: 6
molecule	parameter_measured	obs_value
N=C(Nc1ccc(Cl)cc1)Nc1ncccc1OCc1ccccc1Cl	melting point	162 to 163 °C
OCc1csc(N2CCSCC2)n1	melting point	83 to 84 °C
COc1ccc2cc([C@H](C)C(=O)OCC(=O)N3CCC(CO[N+](=O)[O-])CC3)ccc2c1	melting point	94 to 95 °C
Nc1scc2c(C(=O)O)nn(-c3ccc(Cl)cc3)c(=O)c12	melting point	> 300 °C
CC1(C)Cc2sc3c(c2C1)CCNC3=O	melting point	205 to 207 °C
O=S1(=O)N=C(NC2CC2)Nc2cc(Cl)sc21	melting point	272 to 273 °C

Report melting point for each item below.
1. CC(C)(C)OC(=O)c1ccccc1CCc1ccccc1N
2. COC(=O)c1cc(S(C)=O)ccc1OC (stereo unspecified)

Found:
58 to 59 °C
64 to 66 °C

---

parameter_measured: melting point

# count of solved cases: 4
compound	obs_value
OC(c1ccccc1)c1cc2ccnc(N(Cc3ccccc3)Cc3ccccc3)c2[nH]1 (stereo not given)	53 to 61 °C
O=C(O)CCc1cc(-c2ccccc2)nn1Cc1ccc(Cl)cc1Cl	160 to 161 °C
CCCCCc1nc2c(N)nc3ccccc3c2n1CCCCNC(=O)Nc1ccccc1	159 to 160 °C
C#Cc1cc2c(Nc3ccc4c(cnn4Cc4ccccc4)c3)ncnc2s1	195 °C

Report melting point for each item below.
1. CC(NS(=O)(=O)c1ccc(Cl)cc1)P(=O)(OCCCl)OCCCl (stereo not given)
2. O=S1(=O)N=C(NC2(CO)CCCC2)Nc2cc(Cl)sc21
3. Cn1c(-c2ccccc2)c(CCCl)sc1=S

Found:
1. 94.5 to 98 °C
2. 213 to 214 °C
3. 116 °C

Report melting point for each item below.
1. O=Cc1c[nH]c2c1ccc1c3ccccc3[nH]c12
2. CN(C)c1nc(-c2ccc3c(c2)OCO3)c2cc3c(cc2n1)OCO3
3. COc1ccc(C=CC(=O)c2c(OC)cc(OC)cc2OC2OC(CO)C(O)C(O)C2NC(C)=O)cc1 (stereo not given)
4. CC(C)(C)C(=O)C(Br)C(c1ccc(Cl)cc1Cl)S(=O)(=O)c1ccccc1 (stereo not given)
5. N#Cc1cc(F)cc(-c2ccc3c(c2)C2(CCCC2)C(=O)N3)c1

Found:
["> 290 °C", "200 to 206 °C", "197 to 200 °C", "135 to 136 °C", "235 to 237 °C"]

Report melting point for each item below.
1. CC(Nc1ccc2[nH]c(=O)oc2c1)C(=O)N1CCC(Cc2ccccc2)CC1 (stereo not given)
2. CN(C=O)c1ccc(F)c(Cl)c1
3. CC(C)(C)[Si](C)(C)OCCc1c(N)nc(SCc2ccc3ccccc3c2)nc1O
4. Cc1ccc(N2N=C3c4cc(CCO)sc4CCC3CC2=O)cc1 (stereo not given)
5. COc1ccc2c(c1)CCC1=C2CCC2(C(C)C)C(=O)CCC12 (stereo not given)
6. COC(=O)Oc1ccc(C=Nc2ccc(C#N)cc2)cc1

Found:
["91 °C", "47 to 48 °C", "156 to 158 °C", "159 to 160 °C", "85 to 100 °C", "139 °C"]

Report melting point for each item below.
1. CC(NC(=O)C(F)c1cc(F)cc(F)c1)C(=O)NC1N=C(c2ccccc2)c2ccccc2N(C)C1=O (stereo not given)
2. CCOC(=O)c1ccccc1N(CC(=O)N(C)c1ccccc1)C(=O)CN1C(=O)c2ccccc2C1=O

Found:
1. 119 to 120 °C
2. 202 °C

---

I'd appreciate it if you could supply melting point values for the items below.

# count of solved cases: 4
molecule	melting point
NS(=O)(=O)c1ccc(-c2cccc(-c3nc(-c4ccc(C(F)(F)F)nc4)cc(C(F)(F)F)n3)c2)s1	250 °C
Oc1ccc(CC(=S)Nc2ncc(-c3ccc(O)cc3)nc2Cc2ccccc2)cc1	101 to 103 °C
Cc1nc(NC(=O)c2ccccc2)sc1C(=O)NCc1cccc(Cl)c1	198 to 199 °C
O=C(O)c1cn([C@@H]2C[C@@H]2F)c2c(Cl)c(Cl)ccc2c1=O	198 to 201 °C

Consider now this further molecule.
Lookup: What value of melting point has been recorded for this entry: O=C1CCC2(CC1)OC(c1ccccc1)c1ccccc12 (stereo not given)
Found: 143 to 145 °C

---

parameter_measured: melting point

# count of solved cases: 5
molecule	obs_value
CNC(=O)c1cccc2c(-c3ccccc3)c([N+](=O)[O-])oc12	167 to 169 °C
CCOC(=O)c1cc2c(=O)n(CC)c3ccc(Cl)cc3n2c1	230 to 232 °C
CC(C)C[C@H](N)C(=O)N[C@@H](CC1CCCCC1)[C@@H](O)c1nccs1	140 to 141 °C
Nc1c(Br)cc(N=C2NCCN2)cc1Br	152 to 153 °C
COc1ccccc1Nc1ccc2c(c1)OCc1cc([N+](=O)[O-])ccc1C2=O	200 °C

Report melting point for each item below.
1. C=CCn1c(C)nc2c3c(ccc21)[C@@H](OCCF)[C@H](O)[C@@H](c1ccccc1)O3
2. CC[C@H]1[C@H](O)C2(CC2)C(=O)N1c1ccc(C#N)c(C(F)(F)F)c1
3. COc1cccc2c(C(F)(F)F)cc(C)nc12
4. CC(=O)Oc1ccc(N2CCC(=O)c3ccccc32)cc1
5. CCCc1c(-c2cc(=O)c3c(O)c(CCC)c(OCC4=COC(C)(C)O4)cc3o2)ccc(OC)c1O

Found:
1. 117 °C
2. 106 to 110 °C
3. 112 to 113 °C
4. 130 to 132 °C
5. 148 °C

---

I'd appreciate it if you could supply melting point values for the items below.

# count of solved cases: 10
compound	melting point
CC(C)(C#N)c1cc(-n2cncc2C=O)cc(C(C)(C)C#N)c1	108 to 111 °C
O=c1[nH]c2cc(Cl)c(Cl)cc2c(O)c1-c1ccccc1	347 to 349 °C
Oc1cc(Cl)c(OCc2ccccc2Cl)c(Cl)c1	108 °C
CCOC(=O)C(=CN[C@@H](C)CO)C(=O)c1c(F)c(F)c(Br)c(F)c1F	127 to 134 °C
O=C(Nc1ccc(SC(F)(F)F)cc1)c1ccc2c(c1O)CCCC2	167 °C
CCOC(=O)C1=C(CSSc2ccccc2)NC(C)=C(C(=O)OC)C1c1cccc([N+](=O)[O-])c1 (stereo unspecified)	132 to 133 °C
CCON(C(=O)Cc1c(C)cc(Cl)cc1C)C1(C#N)CCN(OC)CC1	100 to 103 °C
NC(=O)Cc1cc(Oc2ccc3c(ccn3C(=O)Nc3ccc(N4CCNCC4)c(C(F)(F)F)c3)c2)ncn1	149 to 152 °C
Cc1c(C)c(O)c([Si](C)(C)C)c(C#C[Si](C)(C)C)c1O	76 to 77 °C
CC1(CSC#N)SC2C(NC(=O)Cc3ccccc3)C(=O)N2C1C(=O)OCC(Cl)(Cl)Cl (stereo unspecified)	133 to 135 °C

Report melting point for each item below.
1. NNc1ccc(S(=O)(=O)c2ccc(NN)cc2)cc1
2. ON=C(c1ccc(Cl)cc1)c1cccc2nc(N[C@@H]3CCc4ccccc43)ccc12
3. O=C(Nc1ccc(C(=O)N2C[C@@H]3C[C@@H](O)CN3C(=O)c3ccccc32)cc1)c1ccccc1-c1ccccc1
4. CC(C)(C)OC(=O)NCCS(C)(=O)=O
5. CC(=O)N[C@@H](CS)C(=O)NCCSC(C)=O
6. C1=C(N2c3ccccc3Sc3ccccc32)N(C2=NCCC2)CC1
7. O=C(Nc1nnc(Cc2ccc(Cl)cc2)s1)c1ccc2cccnc2c1O

Found:
1. 179 to 183 °C
2. 194 °C
3. 176 to 178 °C
4. 85 to 86 °C
5. 153 to 154 °C
6. 199 to 201 °C
7. 276 to 278 °C
